Origin of values: ChEMBL document CHEMBL1165980

Molecular target: DNA topoisomerase 1 (Homo sapiens)
Sequence (whole entry): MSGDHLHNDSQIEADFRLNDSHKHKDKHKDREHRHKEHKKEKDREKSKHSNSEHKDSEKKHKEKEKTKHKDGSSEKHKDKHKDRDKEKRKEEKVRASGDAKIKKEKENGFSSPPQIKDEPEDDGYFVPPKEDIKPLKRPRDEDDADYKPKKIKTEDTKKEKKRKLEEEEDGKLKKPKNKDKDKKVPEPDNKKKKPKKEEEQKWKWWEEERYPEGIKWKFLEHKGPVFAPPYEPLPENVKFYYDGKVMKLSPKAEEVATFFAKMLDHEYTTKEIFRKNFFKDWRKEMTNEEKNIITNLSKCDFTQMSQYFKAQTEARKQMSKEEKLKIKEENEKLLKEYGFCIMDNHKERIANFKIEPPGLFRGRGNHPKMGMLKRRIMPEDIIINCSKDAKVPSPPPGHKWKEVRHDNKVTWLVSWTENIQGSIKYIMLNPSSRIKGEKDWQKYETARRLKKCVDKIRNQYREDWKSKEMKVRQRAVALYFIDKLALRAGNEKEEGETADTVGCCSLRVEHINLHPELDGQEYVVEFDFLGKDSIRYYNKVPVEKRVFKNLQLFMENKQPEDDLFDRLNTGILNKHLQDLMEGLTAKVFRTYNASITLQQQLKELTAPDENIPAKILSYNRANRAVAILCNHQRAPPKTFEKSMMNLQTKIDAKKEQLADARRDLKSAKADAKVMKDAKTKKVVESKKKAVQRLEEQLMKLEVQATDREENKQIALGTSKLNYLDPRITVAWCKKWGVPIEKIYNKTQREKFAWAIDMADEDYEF
Experiment: Inhibition of DNA topoisomerase 1-mediated relaxation of supercoiled plasmid DNA at 100 uM after 3 hrs by gel electrophoresis
Conditions: in the assay text read “after 30 mins” for “after 3 hrs”
Calls of active or inactive are those of the source. The rule behind the calls is not given here.
metric: inhibition

C=C(C)[C@@H]1CC[C@]2(COC(=O)n3ccnc3C)CC[C@]3(C)[C@H](CC[C@@H]4[C@@]5(C)CC[C@H](O)C(C)(C)[C@@H]5CC[C@]43C)[C@@H]12 :: inactive
C=C(COC)[C@@H]1CC[C@]2(COC(=O)n3ccnc3C)CC[C@]3(C)[C@H](CC[C@@H]4[C@@]5(C)CC[C@H](O)C(C)(C)[C@@H]5CC[C@]43C)[C@@H]12 :: inactive
C=C(C)[C@@H]1CC[C@]2(C(=O)n3ccnc3C)CC[C@]3(C)[C@H](CC[C@@H]4[C@@]5(C)C=CC(=O)C(C)(C)[C@@H]5CC[C@]43C)[C@@H]12 :: inactive

====

Test system: PC-3
Experiment: Cytotoxicity against human PC3 cells after 72 hrs by MTT assay
Type: functional, cell-based
Settings: PC-3, 72 h
# log10 of IC50 values compiled below
// units: µM (pre-log); metric: IC50; scale: log10

Examples with their reported log10 of IC50 follow.
C=C(C)[C@@H]1CC[C@]2(COC(=O)n3cncn3)CC[C@]3(C)[C@H](CC[C@@H]4[C@@]5(C)CC[C@H](OC(=O)n6cncn6)C(C)(C)[C@@H]5CC[C@]43C)[C@@H]12 :: 0.90
C=C(COC)[C@@H]1CC[C@]2(COC(=O)n3cncn3)CC[C@]3(C)[C@H](CC[C@@H]4[C@@]5(C)CC[C@H](O)C(C)(C)[C@@H]5CC[C@]43C)[C@@H]12 :: 0.41

# input Tell me the measured log10 of IC50 of C=C(C)[C@@H]1CC[C@]2(COC(=O)n3cncn3)CC[C@]3(C)[C@H](CC[C@@H]4[C@@]5(C)CC[C@H](O)C(C)(C)[C@@H]5CC[C@]43C)[C@@H]12 , please.
# output 0.67

# input Next up: C=C(COC)[C@@H]1CC[C@]2(COC(=O)n3cncn3)CC[C@]3(C)[C@H](CC[C@@H]4[C@@]5(C)CC[C@H](OC(=O)n6cncn6)C(C)(C)[C@@H]5CC[C@]43C)[C@@H]12
# output 0.81

# input Next up: C=C(C)[C@@H]1CC[C@]2(C(=O)O)CC[C@]3(C)[C@H](CC[C@@H]4[C@@]5(C)CC[C@H](O)C(C)(C)[C@@H]5CC[C@]43C)[C@@H]12 [BETULINIC ACID]
# output 1.33

====

Target: DNA topoisomerase 1 (Homo sapiens)
Experiment: Inhibition of DNA topoisomerase 1-mediated relaxation of supercoiled plasmid DNA at 100 uM after 3 hrs by gel electrophoresis
Conditions: in the assay text read “after 30 mins” for “after 3 hrs”
Active and inactive are the calls of the source. The calls are words filed in the database; no cut-off is given here.
Hi! Could you answer with just one of these? T for active, F for inactive

Field: example entries. Status: answers known.
Cc1nccn1C(=O)OC[C@]12CC[C@@H]([C@@H](C)C=O)C1[C@H]1CC[C@@H]3[C@@]4(C)CC[C@H](O)C(C)(C)[C@@H]4CC[C@@]3(C)[C@]1(C)CC2 (stereo not given in full) :: T
C=C(C)[C@@H]1CC[C@]2(CO)CC[C@]3(C)[C@H](CC[C@@H]4[C@@]5(C)CC[C@H](OC(=O)n6cncn6)C(C)(C)[C@@H]5CC[C@]43C)[C@@H]12 :: T
C=C(C)[C@@H]1CC[C@]2(C(=O)O)CC[C@]3(C)[C@H](CC[C@@H]4[C@@]5(C)C=C(OC(=O)n6ccnc6C)C(=O)C(C)(C)[C@@H]5CC[C@]43C)[C@@H]12 :: T
C=C(C)[C@@H]1CC[C@]2(COC(=O)n3ccnc3C)CC[C@]3(C)[C@H](CC[C@@H]4[C@@]5(C)CC[C@H](OC(=O)n6ccnc6C)C(C)(C)[C@@H]5CC[C@]43C)[C@@H]12 :: F

From here, focus on the item given below.
# input Per the records of this test, what outcome belongs to C=C(COC)[C@@H]1CC[C@]2(COC(=O)n3ccnc3C)CC[C@]3(C)[C@H](CC[C@@H]4[C@@]5(C)CC[C@H](OC(=O)n6ccnc6C)C(C)(C)[C@@H]5CC[C@]43C)[C@@H]12 ?
# output F

====

Test system: HepG2
Test: Cytotoxicity against human HepG2 cells after 72 hrs by MTT assay
Assay type: functional, cell-based
Conditions: HepG2, 72 h
metric: pIC50
Conceptually, pIC50 converts a concentration in mol/L into minus its log10.

Cc1nccn1C(=O)OC[C@]12CC[C@@H]([C@@H](C)C=O)C1[C@H]1CC[C@@H]3[C@@]4(C)CC[C@H](O)C(C)(C)[C@@H]4CC[C@@]3(C)[C@]1(C)CC2 (stereo partly drawn) :: 4.84

Continue with the next molecule.
# input Tell me the measured pIC50 of C=C(C)[C@@H]1CC[C@]2(C(=O)n3cncn3)CC[C@]3(C)[C@H](CC[C@@H]4[C@@]5(C)C=C(O)C(=O)C(C)(C)[C@@H]5CC[C@]43C)[C@@H]12 , please.
# output 5.13

====

# pIC50 values compiled below
Tested on: PC-3
Assay: Cytotoxicity against human PC3 cells after 72 hrs by MTT assay
Format: functional, cell-based
Conditions: PC-3, 72 h
Conceptually, pIC50 converts a concentration in mol/L into minus its log10.

Examples with their reported pIC50 follow.
C=C(C)[C@@H]1CC[C@]2(C(=O)n3cncn3)CC[C@]3(C)[C@H](CC[C@@H]4[C@@]5(C)C=C(O)C(=O)C(C)(C)[C@@H]5CC[C@]43C)[C@@H]12 :: 5.74
C=C(C)[C@@H]1CC[C@]2(CO)CC[C@]3(C)[C@H](CC[C@@H]4[C@@]5(C)CC[C@H](OC(=O)n6cncn6)C(C)(C)[C@@H]5CC[C@]43C)[C@@H]12 :: 5.68

Continue with the next molecule.
# input Tell me the measured pIC50 of C=C(C)[C@@H]1CC[C@]2(C(=O)n3cncn3)CC[C@]3(C)[C@H](CC[C@@H]4[C@@]5(C)CC[C@H](OC(=O)n6cncn6)C(C)(C)[C@@H]5CC[C@]43C)[C@@H]12 , please.
# output 5.96
